meta.source: paper PMC9482650

biological target: Inadl_3, Q8NI35; assay: holdup assay; parameters: key: below the threshold = too weak to quantify, mostly under pKd 3.1 to 4; settings: plain residues with an end cap or a label only (N-terminal biotin on a linker: ado-ado)
Sequence (Q8NI35 359-469): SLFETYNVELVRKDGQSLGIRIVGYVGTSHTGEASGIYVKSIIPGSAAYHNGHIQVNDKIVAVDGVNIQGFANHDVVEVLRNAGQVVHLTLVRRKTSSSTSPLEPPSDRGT
measureName: pKd

binder	val
LPPPESESKV [KCNJ9, Q92806]	below the threshold
IGHEDLETAV [DGKI, O75912]	3.53
KAEEKPPSKV [SCN4B, Q8IWT1]	below the threshold
GSQSQVETEA [FKBP4, Q02790]	below the threshold
VYEVPVETKF [SLC26A3, P40879]	below the threshold
